Provide the reported IC50 of each item.
Target: Met (Homo sapiens (Human), UniProt P08581)
Sequence (P08581 25-1390): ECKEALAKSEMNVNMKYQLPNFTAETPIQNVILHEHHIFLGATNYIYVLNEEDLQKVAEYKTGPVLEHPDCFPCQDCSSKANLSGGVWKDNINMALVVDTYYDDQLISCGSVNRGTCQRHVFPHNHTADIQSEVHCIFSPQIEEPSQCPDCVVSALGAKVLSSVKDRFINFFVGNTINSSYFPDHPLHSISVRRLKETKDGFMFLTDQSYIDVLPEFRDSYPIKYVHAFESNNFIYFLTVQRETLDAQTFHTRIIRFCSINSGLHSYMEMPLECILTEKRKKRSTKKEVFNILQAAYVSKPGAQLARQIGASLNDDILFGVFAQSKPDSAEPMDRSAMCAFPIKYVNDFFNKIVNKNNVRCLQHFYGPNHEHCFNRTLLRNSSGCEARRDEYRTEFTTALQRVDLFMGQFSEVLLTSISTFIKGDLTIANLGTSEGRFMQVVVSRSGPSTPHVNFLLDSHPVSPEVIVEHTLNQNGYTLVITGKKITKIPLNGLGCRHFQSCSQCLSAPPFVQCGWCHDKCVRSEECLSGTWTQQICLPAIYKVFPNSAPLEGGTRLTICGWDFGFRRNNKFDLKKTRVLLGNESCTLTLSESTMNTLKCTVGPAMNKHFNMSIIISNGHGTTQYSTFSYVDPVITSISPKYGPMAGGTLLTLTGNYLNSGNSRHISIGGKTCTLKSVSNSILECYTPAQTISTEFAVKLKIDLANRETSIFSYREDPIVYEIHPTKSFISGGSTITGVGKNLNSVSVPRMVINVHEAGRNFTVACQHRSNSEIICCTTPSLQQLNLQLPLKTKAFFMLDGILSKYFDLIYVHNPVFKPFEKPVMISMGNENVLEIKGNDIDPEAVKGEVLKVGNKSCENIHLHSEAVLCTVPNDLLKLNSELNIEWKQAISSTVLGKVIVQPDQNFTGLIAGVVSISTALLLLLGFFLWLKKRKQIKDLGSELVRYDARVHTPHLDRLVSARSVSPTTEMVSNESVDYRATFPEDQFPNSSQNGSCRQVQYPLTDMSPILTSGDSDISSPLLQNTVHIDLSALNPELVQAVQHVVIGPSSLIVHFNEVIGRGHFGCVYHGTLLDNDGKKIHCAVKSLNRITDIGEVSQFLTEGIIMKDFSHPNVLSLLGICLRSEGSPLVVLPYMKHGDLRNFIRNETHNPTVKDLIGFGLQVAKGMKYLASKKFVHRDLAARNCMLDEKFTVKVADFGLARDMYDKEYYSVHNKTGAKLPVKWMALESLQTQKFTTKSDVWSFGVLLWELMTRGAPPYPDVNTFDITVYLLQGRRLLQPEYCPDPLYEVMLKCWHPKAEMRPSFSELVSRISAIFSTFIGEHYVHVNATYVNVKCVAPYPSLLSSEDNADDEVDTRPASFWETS
Assay: Met autophosphorylation ELISA in PC-3 cells
Conditions: cellular, HGF stimulated, read-out: c-Met IC50

Reading of IC50 for CNC(=O)c1cc2c(Oc3ccc(NC(=O)C4(C(=O)Nc5ccc(F)cc5C)CC4)cc3F)ccnc2cc1OC [Compound 265] with Met (Homo sapiens (Human), UniProt P08581): 10 to 100 nM

Log: Met (Homo sapiens (Human), UniProt P08581), compound CN1CC(NC(=O)c2ccc3nccc(Oc4ccc(NC(=O)C5(C(=O)Nc6ccc(F)cc6)CC5)cc4)c3c2)C1 [Compound 60] , IC50 = 100 to 300 nM

Log: Met (Homo sapiens (Human), UniProt P08581), compound COC(=O)c1cc2c(Oc3ccc(NC(=O)C4(C(=O)Nc5ccc(F)cc5)CC4)cc3F)ccnc2cc1OC [Compound 129] , IC50 = 10 to 100 nM

Item COc1cc2nccc(Oc3ccc(NC(=O)C4(C(=O)Nc5ccc(F)cc5)CC4)cc3)c2cc1-c1cn(C)cn1 [Compound 177] was tested on Met (Homo sapiens (Human), UniProt P08581); the reported IC50 is 10 to 100 nM

====

Assay: Pharmacokinetic studies in male Sprague-Dawley rats
Assay type: in vivo
Settings: male, Sprague-Dawley, plasma; rat, IV (3.0 mg/kg)
quantity.name: clearance (mL/min/kg)
Respond numerically; units are mL/min/kg and should not be typed.

Lab book: clearance of `CONC(=O)c1cc2c(Oc3ccc(NC(=O)C4(C(=O)Nc5ccc(F)cc5)CC4)cc3)ccnc2cc1OC` noted as 1.7

The recorded clearance for entry `COc1cc2nccc(Oc3ccc(NC(=O)C4(C(=O)Nc5ccc(F)cc5)CC4)cc3)c2cc1-c1ncc[nH]1` equals 1.05

====

Target: KDR (Homo sapiens (Human))
Sequence (P35968 20-1356): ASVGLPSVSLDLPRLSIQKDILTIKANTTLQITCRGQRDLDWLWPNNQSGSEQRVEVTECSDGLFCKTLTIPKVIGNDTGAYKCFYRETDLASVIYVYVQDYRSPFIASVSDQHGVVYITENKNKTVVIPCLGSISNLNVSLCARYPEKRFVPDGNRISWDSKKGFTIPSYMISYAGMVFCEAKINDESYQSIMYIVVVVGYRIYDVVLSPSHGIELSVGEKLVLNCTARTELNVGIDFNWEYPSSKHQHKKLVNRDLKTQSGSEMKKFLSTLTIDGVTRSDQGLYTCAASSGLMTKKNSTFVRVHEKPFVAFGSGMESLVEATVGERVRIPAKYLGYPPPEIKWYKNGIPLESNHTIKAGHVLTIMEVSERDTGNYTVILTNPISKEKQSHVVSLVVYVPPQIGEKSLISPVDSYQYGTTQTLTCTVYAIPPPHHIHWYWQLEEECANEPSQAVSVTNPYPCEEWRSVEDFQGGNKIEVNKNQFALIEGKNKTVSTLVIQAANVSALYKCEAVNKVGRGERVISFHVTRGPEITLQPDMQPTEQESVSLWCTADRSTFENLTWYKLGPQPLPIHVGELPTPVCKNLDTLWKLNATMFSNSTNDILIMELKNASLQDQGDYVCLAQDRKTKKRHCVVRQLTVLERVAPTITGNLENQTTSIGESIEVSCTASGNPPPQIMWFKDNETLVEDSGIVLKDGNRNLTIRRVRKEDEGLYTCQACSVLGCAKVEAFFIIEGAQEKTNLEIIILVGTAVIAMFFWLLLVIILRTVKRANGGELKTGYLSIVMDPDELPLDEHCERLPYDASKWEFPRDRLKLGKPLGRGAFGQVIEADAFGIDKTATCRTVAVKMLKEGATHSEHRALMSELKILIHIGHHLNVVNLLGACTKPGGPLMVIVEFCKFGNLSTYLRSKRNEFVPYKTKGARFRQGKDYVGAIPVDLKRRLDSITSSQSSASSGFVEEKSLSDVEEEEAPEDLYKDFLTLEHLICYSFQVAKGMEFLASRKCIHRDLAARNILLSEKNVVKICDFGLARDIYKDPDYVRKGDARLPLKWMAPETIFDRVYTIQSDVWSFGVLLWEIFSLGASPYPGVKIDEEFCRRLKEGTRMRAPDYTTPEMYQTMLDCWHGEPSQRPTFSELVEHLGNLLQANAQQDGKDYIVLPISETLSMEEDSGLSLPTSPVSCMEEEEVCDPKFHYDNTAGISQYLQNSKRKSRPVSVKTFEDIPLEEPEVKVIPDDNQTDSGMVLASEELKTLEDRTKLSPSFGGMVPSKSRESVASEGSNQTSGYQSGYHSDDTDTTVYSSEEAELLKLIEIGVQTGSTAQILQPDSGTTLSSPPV
Test: KDR autophosphorylation ELISA in HUVEC cells
Conditions: cellular, VEGF165 stimulated
pIC50: −log10 of the molar value.
Assign pIC50 to each entry below.

Item: `COC(=O)c1cc2c(Oc3ccc(NC(=O)C4(C(=O)Nc5ccc(F)cc5)CC4)cc3F)ccnc2cc1OC` | pIC50: ≥ 8.00

What the record says about `COc1cc2nccc(Oc3ccc(NC(=O)C4(C(=O)Nc5ccc(F)cc5)CC4)cc3)c2cc1C(=O)NCCN1CCCCC1` : pIC50 is ≥ 8.00

Documented pIC50 of `COc1cc2nccc(Oc3ccc(NC(=O)C4(C(=O)Nc5ccc(F)cc5)CC4)cc3)c2cc1C(=O)NOC1COC1` : ≥ 8.00

For `CNc1cc2nccc(Oc3ccc(NC(=O)C4(C(=O)Nc5ccc(F)cc5)CC4)cc3)c2cc1C(=O)O` the molecule record lists pIC50 as < 6.52

Looking up `COc1cc2nccc(Oc3ccc(NC(=O)C4(C(=O)Nc5ccc(F)cc5)CC4)cc3)c2cc1-c1ccncc1` , I found its pIC50 recorded as 7.00 to 8.00

Lookup result for `COc1cc2nccc(Oc3ccc(NC(=O)C4(C(=O)Nc5ccc(F)cc5)CC4)cc3)c2cc1-c1ccccn1` ; measured pIC50: 7.00 to 8.00

// field: pIC50; key: `COc1cc2c(Oc3ccc(NC(=O)C4(C(=O)Nc5ccc(F)cc5)CC4)cc3)ccnc2cc1C(=O)O` ; value = < 6.52
